Tested on: NCI-H23
procedure-details: NCI tumour cell line growth inhibition, 48 h
Calls of active or inactive are those of the source. Rule as the data show it: active = GI50 up to about 1.1 µM and inactive = higher.
experimental-endpoint: GI50

compound	experimental-endpoint	value-reported
COc1c(Sc2c(SCSc3cnc4ccccc4c3Sc3cnc4ccccc4c3OC)cnc3ccccc23)cnc2ccccc12	GI50	54.8 µM (inactive)
CC(C)=CC(=O)c1[nH]c2ccccc2c1CC(=O)NCCc1cn(C(c2ccccc2)(c2ccccc2)c2ccccc2)cn1	GI50	4.69 µM (inactive)
Cc1cc(O)nc(NN2C(Cl)C(=O)C2c2cccc(Cl)c2)n1 (centres undefined)	GI50	20.1 µM (inactive)
Fc1ccc(C(OCCN2CC3CCC(C2)N3CCCc2ccccc2)c2ccc(F)cc2)cc1	GI50	4.25 µM (inactive)
COC(=O)C(=O)C(CC(=O)Nc1c(C)cccc1C)C(=O)OC (centres undefined)	GI50	> 100 µM (inactive)

Continue with the next compound.
# input compound: CC(C)CC(CNC(Cc1ccc(Cl)cc1)C(N)=O)NC(=O)C(Cc1c[nH]cn1)NC(=O)CNC(=O)C(NC(=O)C(C)NC(=O)C(Cc1c[nH]c2ccccc12)NC(=O)C(CCC(=O)O)NC(=O)C(N)Cc1ccccc1)C(C)C (centres undefined) ; wanted: its GI50
> 133 µM (inactive)
